molecular target: IDO1 enzyme (Homo sapiens, UniProt P14902); assay: Determination of biochemical activity of IDO1 enzyme (absorbance at 320 nm); conditions: room temperature, 3 hours
Sequence (P14902 whole entry): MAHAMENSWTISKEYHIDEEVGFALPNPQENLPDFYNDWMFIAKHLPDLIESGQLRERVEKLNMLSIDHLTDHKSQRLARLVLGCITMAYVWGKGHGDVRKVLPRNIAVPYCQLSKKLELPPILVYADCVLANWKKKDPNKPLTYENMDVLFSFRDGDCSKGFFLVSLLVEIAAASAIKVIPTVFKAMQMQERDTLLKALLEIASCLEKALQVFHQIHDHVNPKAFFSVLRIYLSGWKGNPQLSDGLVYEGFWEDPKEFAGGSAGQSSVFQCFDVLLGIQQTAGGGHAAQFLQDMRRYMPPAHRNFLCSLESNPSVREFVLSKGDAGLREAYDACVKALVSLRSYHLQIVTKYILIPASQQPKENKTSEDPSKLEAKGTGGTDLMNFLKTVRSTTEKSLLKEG
For each of the compounds below, state its IC50.

Query: Name the recorded IC50 for O=C(Nc1ccccc1)Nc1conc1/C(=N/O)Nc1ccc(F)c(Cl)c1 .
Result: 0.1 to 1 µM

Query: Same question for COc1cccc(NC(=O)Nc2cocc2/C(=N/O)Nc2ccc(F)c(Br)c2)c1 please.
Result: > 1 µM

Query: Param item: NCCNC(=O)Nc1cocc1/C(=N/O)Nc1ccc(F)c(Br)c1
Result: 0.1 to 1 µM

Query: Another compound: N=C(Nc1nonc1/C(=N/O)Nc1ccc(F)c(Br)c1)NC1CC1
Result: > 1 µM

Query: COc1ccc(NC(=O)Nc2cocc2/C(=N/O)Nc2ccc(F)c(Br)c2)cc1 ?
Result: 0.1 to 1 µM

Query: Another compound: CS(=O)(=O)N1CCC(NC(=O)Nc2nonc2/C(=N/O)Nc2ccc(F)c(Br)c2)CC1
Result: 0.1 to 1 µM

Query: Same thing, different compound: O=C(Nc1conc1/C(=N/O)Nc1ccc(F)c(Br)c1)NC1CCCC1
Result: > 1 µM

Query: Another: O=C(Nc1conc1/C(=N/O)Nc1ccc(F)c(Br)c1)NC1CCC(O)CC1 (centres unmarked)
Result: < 0.001 µM

====

molecular target: IDO1 enzyme in the Hela cell (Homo sapiens, UniProt P14902); construct: endogenous in cells; host or cells: HeLa cells stimulated with interferon γ (100 ng/ml); experiment: Cell activity: interferon γ-stimulated Hela cells, absorbance of supernatant at 480 nm; format: cell-based; settings: interferon γ 100 ng/ml, 72 hours
quantity: IC50

Query: What measured IC50 is associated with NC1CCC(NC(=O)Nc2nonc2/C(=N/O)Nc2ccc(F)c(Cl)c2)CC1 (stereo not shown) on IDO1 enzyme in the Hela cell (Homo sapiens, UniProt P14902)?
Result: < 0.001 µM

Query: What do you have for O=C(Nc1conc1/C(=N/O)Nc1ccc(F)c(Br)c1)NC1CCNCC1 ?
Result: < 0.001 µM

Query: Repeat for the following compound: O=C(Nc1nonc1/C(=N/O)Nc1ccc(F)c(Br)c1)Nc1csc2ccccc12
Result: 0.1 to 1 µM

Query: What do we get for COc1ccc(NC(=N)Nc2conc2/C(=N/O)Nc2ccc(F)c(Cl)c2)cc1 ?
Result: 0.1 to 1 µM

Query: Request: O=C(Nc1ccoc1)Nc1cocc1/C(=N/O)Nc1ccc(F)c(Br)c1
Result: > 1 µM

Query: N=C(Nc1ccccc1)Nc1nonc1/C(=N/O)Nc1ccc(F)c(Br)c1 , same question.
Result: 0.1 to 1 µM

Query: Query O/N=C(\Nc1ccc(F)c(Br)c1)c1nonc1NC(=S)NC1CCCC1 next
Result: > 1 µM

Query: Then O=C(Nc1cccnc1)Nc1cocc1/C(=N/O)Nc1ccc(F)c(Br)c1 ?
Result: 0.1 to 1 µM

Query: Can you handle O=C(NCCCO)Nc1nonc1/C(=N/O)Nc1ccc(F)c(Br)c1 next?
Result: < 0.001 µM

Query: Also COc1ccc(NC(=O)Nc2nonc2/C(=N/O)Nc2ccc(F)cc2)cc1 ?
Result: 0.1 to 1 µM

Query: Try this compound too: O=C(Nc1nonc1/C(=N/O)Nc1ccc(F)c(Br)c1)NC1CCNCC1
Result: < 0.001 µM

Query: Now consider COc1ccc(NC(=O)Nc2conc2/C(=N/O)Nc2ccc(F)c(Cl)c2)cc1 and answer again.
Result: 0.1 to 1 µM

Query: Moving on to the next compound: COc1ccc(NC(=N)Nc2nonc2/C(=N/O)Nc2ccc(F)c(Br)c2)c(F)c1
Result: 0.1 to 1 µM

Query: Next up: O=C(Nc1conc1/C(=N/O)Nc1ccc(F)c(Br)c1)NC1CCCCC1
Result: 0.1 to 1 µM

Query: Please answer likewise for O=C(Nc1ccccc1)Nc1nocc1/C(=N/O)Nc1ccc(F)c(Cl)c1
Result: 0.1 to 1 µM

Query: Next record, please: NCCCNC(=O)Nc1nonc1/C(=N/O)Nc1ccc(F)c(Br)c1
Result: < 0.001 µM

Query: Then O=C(Nc1cc[nH]c1)Nc1cocc1/C(=N/O)Nc1ccc(F)c(Br)c1 ?
Result: > 1 µM

Query: And what about the compound O=C(Nc1ccc(C(F)(F)F)cc1)Nc1nonc1/C(=N/O)Nc1ccc(F)c(Br)c1 ?
Result: > 1 µM

Query: What about this compound? O=C(NCCO)Nc1conc1/C(=N/O)Nc1ccc(F)c(Br)c1
Result: < 0.001 µM

Query: What about this compound? Nc1ccc(NC(=O)Nc2nonc2/C(=N/O)Nc2ccc(F)c(Cl)c2)cc1
Result: < 0.001 µM

Query: Now the compound N=C(NCCCO)Nc1nonc1/C(=N/O)Nc1ccc(F)c(Br)c1
Result: < 0.001 µM

Query: Moving on to the next compound: O/N=C(\Nc1ccc(F)c(Br)c1)c1conc1NC(=S)Nc1ccccc1
Result: 0.1 to 1 µM
